- target_under_test: CLR/RAMP1 (calcitonin receptor-like receptor) (Homo sapiens, UniProt O60894+Q16602)
- Construct: with RAMP1
- Sequence (Q16602 23-461): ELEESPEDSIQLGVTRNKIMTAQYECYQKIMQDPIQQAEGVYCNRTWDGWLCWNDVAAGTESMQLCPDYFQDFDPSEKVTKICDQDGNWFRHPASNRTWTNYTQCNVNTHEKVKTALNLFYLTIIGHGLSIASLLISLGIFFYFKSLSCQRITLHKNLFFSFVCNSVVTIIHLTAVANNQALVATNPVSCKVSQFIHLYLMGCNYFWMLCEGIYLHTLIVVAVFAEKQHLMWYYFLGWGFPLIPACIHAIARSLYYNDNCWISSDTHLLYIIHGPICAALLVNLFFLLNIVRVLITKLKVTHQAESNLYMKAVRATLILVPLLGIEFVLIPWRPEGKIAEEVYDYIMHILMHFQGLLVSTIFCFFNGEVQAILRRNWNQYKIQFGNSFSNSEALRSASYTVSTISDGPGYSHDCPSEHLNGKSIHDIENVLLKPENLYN
- Sequence (O60894 27-148): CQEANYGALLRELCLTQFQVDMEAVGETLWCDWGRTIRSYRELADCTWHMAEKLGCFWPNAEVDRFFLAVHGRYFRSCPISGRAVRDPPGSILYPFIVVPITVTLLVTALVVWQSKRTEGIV
- experimental_protocol: inhibition of CGRP-evoked Ca2+ response in primary human Schwann cells (preincubation, then washout)
readout_kind: pIC50
The quantity pIC50 is defined as the negative base-10 logarithm of the molar concentration.

[in] Value lookup for pIC50; key = O=C(CN1C(=O)C2(CCCC2)NC[C@H]1c1cc(F)cc(F)c1)Nc1ccc2c(c1)C[C@@]1(C2)C(=O)Nc2ncccc21
[out] 5.54
